// data source = the MegaScale stability set (Tsuboyama et al. 2023)

B1: EEHEE_rd3_1049 (parent)
chain: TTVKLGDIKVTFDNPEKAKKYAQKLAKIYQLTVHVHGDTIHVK

variants of: B1; test: folding stability dG (cDNA display proteolysis); higher = more stable; details: PBS, room temperature
Property: folding stability dG; scope: individual variants
Numbers only; they are read as kcal/mol.

[[record]]
mutant_id = "Y29K"
test_value = 0.669


Turning to the following variant.
Indicate the recorded folding stability dG value for this variant: Q23M
2.25
